B1: TPR t1 (parent)
chain: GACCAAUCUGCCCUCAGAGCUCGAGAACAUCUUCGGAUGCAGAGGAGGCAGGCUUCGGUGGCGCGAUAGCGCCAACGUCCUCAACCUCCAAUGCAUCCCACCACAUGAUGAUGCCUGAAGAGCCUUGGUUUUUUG

Variants of: B1
protocol.description: polymerase ribozyme fitness, log enrichment relative to wild type (log ratio); higher = more active; in vitro selection for triplet polymerase activity
Condition met means recorded polymerase ribozyme fitness (log ratio) is -2 or above; Condition not met means it is below -2.

These solved cases illustrate the format of a correct answer.
variant.spec: A43G C73G U78A A111G
group: Condition not met

variant.spec: C22U A90U U112G
group: Condition not met

Can C8A U9G be said to have polymerase ribozyme fitness (log ratio) at or above -2?
Condition met

And for C11U A16C G93C ?
Condition not met

Further, for C28U G71U C82A ?
Condition not met

Repeat for the following variant: A29U G69U C123A
Condition met

Next record, please: A2G C8A G51U U59G
Condition not met

Then what about the variant C56A C72U G93U ?
Condition met

Record: G61A U112G G120U G122C
Condition met
